Molecular target: Protein Mdm4 (Homo sapiens) + E3 ubiquitin-protein ligase Mdm2 (Homo sapiens) (UniProt O15151+Q00987)
Sequence (O15151 whole entry, looked up): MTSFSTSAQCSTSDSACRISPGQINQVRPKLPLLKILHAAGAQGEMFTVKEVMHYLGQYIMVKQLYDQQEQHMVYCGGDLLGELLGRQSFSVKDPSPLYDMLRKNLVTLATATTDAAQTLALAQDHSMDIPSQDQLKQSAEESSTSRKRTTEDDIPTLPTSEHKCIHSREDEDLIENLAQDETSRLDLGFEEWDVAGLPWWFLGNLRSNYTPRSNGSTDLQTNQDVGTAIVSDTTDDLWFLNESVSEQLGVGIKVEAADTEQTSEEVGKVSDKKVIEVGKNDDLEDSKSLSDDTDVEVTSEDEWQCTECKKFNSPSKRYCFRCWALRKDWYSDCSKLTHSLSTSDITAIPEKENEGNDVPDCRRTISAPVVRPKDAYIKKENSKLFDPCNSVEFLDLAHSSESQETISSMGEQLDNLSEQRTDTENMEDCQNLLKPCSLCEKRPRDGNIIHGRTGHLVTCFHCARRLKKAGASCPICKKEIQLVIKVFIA
Sequence (Q00987 whole entry, looked up): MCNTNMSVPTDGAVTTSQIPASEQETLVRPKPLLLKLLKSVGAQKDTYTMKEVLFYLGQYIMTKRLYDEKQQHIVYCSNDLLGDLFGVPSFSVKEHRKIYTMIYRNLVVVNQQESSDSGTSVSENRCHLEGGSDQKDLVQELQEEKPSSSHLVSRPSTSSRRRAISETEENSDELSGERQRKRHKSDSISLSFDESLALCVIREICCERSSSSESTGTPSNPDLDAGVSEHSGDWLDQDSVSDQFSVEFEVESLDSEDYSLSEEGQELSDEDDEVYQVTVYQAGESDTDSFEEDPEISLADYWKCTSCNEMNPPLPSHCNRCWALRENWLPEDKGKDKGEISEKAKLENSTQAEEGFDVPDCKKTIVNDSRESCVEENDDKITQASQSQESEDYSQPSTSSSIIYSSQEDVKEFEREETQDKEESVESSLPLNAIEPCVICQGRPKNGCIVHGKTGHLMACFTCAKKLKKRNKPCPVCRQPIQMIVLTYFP
Assay: inhibitors of human Mdm2-MdmX association, primary screen, cell-based, luminescence, split luciferase, SaOS-2, uHTS (AID 485346)
Conditions: SaOS-2 split-luciferase Mdm2/MdmX complementation, at 8 µM
The campaign covered roughly 330,000 compounds. About 10,000 (3%) were called active.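 The calls were made as follows: active = inhibition of at least 50% at 8 µM in the primary screen; inactive = the rest.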 The full list was thinned out, with actives kept by preference.
Outcome codes: active, inactive

{"compound": "Cc1cc(NC(=O)CSc2ncc(C(F)(F)F)cc2Cl)no1", "class-name": "inactive"}
{"compound": "O=c1ccc2cc(S(=O)(=O)NCCCc3ccccc3)ccc2[nH]1", "class-name": "inactive"}
{"compound": "Cc1[nH]c(C)c(S(=O)(=O)N2CCC(C)CC2)c1C(=O)N1CCCC1", "class-name": "inactive"}
{"compound": "C/C(=N\\NC(=O)c1ccc(CSc2nc(C)cc(C)n2)cc1)C1CCCCC1", "class-name": "inactive"}
{"compound": "COc1ccccc1N1CCN(C(=O)c2c(-c3c(Cl)cccc3Cl)noc2C)CC1", "class-name": "inactive"}
{"compound": "Cc1ccc2c(cnn2C(=O)CCC(=O)NC2CCCC2)c1", "class-name": "inactive"}
{"compound": "COc1ccccc1C(=O)Nc1ccc(C)c(S(=O)(=O)N2CCCCC2)c1", "class-name": "inactive"}
{"compound": "O=C(COc1ccccc1F)Nc1nc(-c2ccccn2)cs1", "class-name": "active"}
{"compound": "CC1(C)CCSC(/C=C/c2ccccc2)=N1", "class-name": "active"}
{"compound": "COc1ccccc1C(=O)NC(=S)NC12CC3CC(CC(C3)C1)C2", "class-name": "active"}
{"compound": "CN(CC(=O)NC(=O)Nc1ccccc1F)Cc1ccccc1", "class-name": "inactive"}
{"compound": "CCOc1ccc(CNC(=O)C2CCCN(c3nnc(C)c4c(C)n(-c5ccccc5)nc34)C2)cc1 (stereo not drawn)", "class-name": "inactive"}
{"compound": "CCOC(=O)C1CCN(C(=O)c2ccccc2N(C)S(=O)(=O)c2ccccc2)CC1", "class-name": "inactive"}
{"compound": "CCSC1=NCCN1S(=O)(=O)c1ccc(F)cc1", "class-name": "inactive"}
{"compound": "COC1=C(N2CCOCC2)C(=O)c2ccccc2C1=O", "class-name": "inactive"}
{"compound": "CCCNc1c(N)c(=O)c1=O", "class-name": "inactive"}
{"compound": "COc1ccc2nc(/N=C(\\N)NC(=O)Nc3ccccc3)nc(C)c2c1", "class-name": "inactive"}
{"compound": "CCOC(=O)C1CCN(C(=O)C2CCN(S(=O)(=O)CC)CC2)CC1", "class-name": "inactive"}
{"compound": "CCOC(=O)c1ccc(NC(=O)c2nc[nH]c2C(=O)N[C@@H](CCCCNC(=O)OC(C)(C)C)C(=O)OC(C)(C)C)cc1", "class-name": "active"}
{"compound": "Cc1nc(SCC(=O)Nc2cc(C)on2)c2c(C)c(C)sc2n1", "class-name": "active"}
{"compound": "CCOC(=O)CCCNC(=O)COC(=O)c1cc(Br)c(Br)s1", "class-name": "inactive"}
{"compound": "Cc1cc(NC(=O)CSc2nc(C(C)C)nc3sc4c(c23)CCC(C)C4)no1 (stereo not drawn)", "class-name": "inactive"}
{"compound": "C[C@@H](C(=O)N1CCNCC1)n1cc(CCC(=O)O)nn1", "class-name": "inactive"}

====

Listed molecules paired with reported inhibition
Biological target: Protein Mdm4 (Homo sapiens) + E3 ubiquitin-protein ligase Mdm2 (Homo sapiens) (UniProt O15151+Q00987)
Assay: inhibitors of human Mdm2-MdmX association, primary screen, cell-based, luminescence, split luciferase, SaOS-2, uHTS (AID 485346)
Conditions: SaOS-2 split-luciferase Mdm2/MdmX complementation, at 8 µM, stronger effect = higher value
Among all 330,000 compounds or so, about 10,000 (3%) were called active. The sample holds actives, similar compounds and a random draw of the others, so the mix is not that of the screen.

{"molecule": "CCNC(=O)N(CC)C[C@H]1N[C@@](CC)(C(=O)OC)[C@H]2C(=O)N(Cc3ccccc3)C(=O)[C@@H]12", "unit-spec": "%", "inhibition": 13.8}
{"molecule": "COc1cc(C(=O)Nc2cc(C(F)(F)F)ccc2N2CCOCC2)ccc1O", "unit-spec": "%", "inhibition": 15.4}
{"molecule": "O=C(CC(O)(C(F)(F)F)C(F)(F)F)Nc1ccc(Cl)c(Cl)c1", "unit-spec": "%", "inhibition": 83.5}
{"molecule": "Cc1ccc(CNC(=O)C2CCN(S(=O)(=O)c3ccc4nc5c(c(C(=O)O)c4c3)CC(C)CC5)CC2)cc1 (configuration not stated)", "unit-spec": "%", "inhibition": 6.94}
{"molecule": "Cc1cccc(C)c1NC1=NC(=S)N(c2ccc(N(C)C)cc2)C1(C)C", "unit-spec": "%", "inhibition": 13.2}
{"molecule": "Oc1c(Cl)cc(Cl)c(Cl)c1Cc1c(O)c(Cl)cc(Cl)c1Cl", "unit-spec": "%", "inhibition": 95}
{"molecule": "CCCN=C1N(C)C[C@@H]2[C@@H]3C(=O)N(Cc4ccccc4)C(=O)[C@@H]3[C@](C)(C(=O)OC)N12", "unit-spec": "%", "inhibition": -2.26}
{"molecule": "COc1cc(OC)c(C(=O)NNC(=O)c2ccccc2-n2cccc2)cc1OC", "unit-spec": "%", "inhibition": 12.8}
{"molecule": "O=C(COC(=O)c1ccccc1Cl)NC1CCCCCCC1", "unit-spec": "%", "inhibition": 4.18}
{"molecule": "COc1cccc(NC(=O)c2cc(S(=O)(=O)N3CCc4ccccc43)cn2C)c1", "unit-spec": "%", "inhibition": 32}
{"molecule": "Cn1c(CCNS(=O)(=O)c2ccc(F)cc2)nnc1SCc1cccnc1", "unit-spec": "%", "inhibition": 13.7}
{"molecule": "CN(C(=O)CSc1cccc[n+]1[O-])C1CCCCC1", "unit-spec": "%", "inhibition": 20.9}

====

Target: Protein Mdm4 (Homo sapiens) + E3 ubiquitin-protein ligase Mdm2 (Homo sapiens) (UniProt O15151+Q00987)
Assay: inhibitors of human Mdm2-MdmX association, primary screen, cell-based, luminescence, split luciferase, SaOS-2, uHTS (AID 485346)
Settings: SaOS-2 split-luciferase Mdm2/MdmX complementation, at 8 µM, stronger effect = higher value
The campaign covered roughly 330,000 compounds. About 10,000 (3%) were called active. Only a selection was taken, and actives are over-represented in it overall.
readout: inhibition (%)

{"molecule": "COc1ccc(N(C)C(=O)CCS(=O)(=O)c2cccc3nsnc23)cc1", "measurement": -8.48}
{"molecule": "COc1ccccc1N(C)C(=O)c1cc(S(=O)(=O)N2CCc3ccccc32)cn1C", "measurement": 14.1}
{"molecule": "COc1ccc(CCN(C)C(=O)C23CC4CC(CC(Cl)(C4)C2)C3)cc1OC", "measurement": 27.9}
{"molecule": "N#Cc1c(N)nc2c3c(sc(=N)c2c1N)NC(=O)CC3c1ccccc1Cl (centres undefined)", "measurement": 68.7}
{"molecule": "Cc1cc2[nH]ncc2cc1NC(=S)NC(=O)c1ccccc1", "measurement": 35}
{"molecule": "COc1ccc(C2c3[nH]c4ccccc4c3C[C@H]3C(=O)N(CC(C)C)CC(=O)N23)c(OC)c1 (some centres undefined)", "measurement": 13.6}
{"molecule": "Cc1ccc(S(=O)(=O)N2CCC(N3CCCCCC3)CC2)cc1", "measurement": 1.35}
{"molecule": "CCCCCNC(=O)c1cccnc1SCC(=O)Nc1ccccc1OC", "measurement": 1.51}
{"molecule": "Cn1c(=O)n(Cc2ccco2)c(=N)c2c3c(sc21)CCCC3", "measurement": 15.6}
{"molecule": "Cc1ccc(N(Cc2cc3ccccc3[nH]c2=O)C(=O)c2cccs2)cc1", "measurement": -12.3}
{"molecule": "O=C(CN(c1cccc(Cl)c1)S(=O)(=O)c1ccccc1)NN=C1CCCC1", "measurement": -14}
{"molecule": "CN(C)CCN(C(=O)CN1C(=O)c2ccccc2C1=O)c1nc2cc3c(cc2s1)OCCO3", "measurement": -9.56}
{"molecule": "O=c1c2c3c(sc2n(CCN2CCCC2)c(=O)n1Cc1ccccc1)CCCCC3", "measurement": 28.5}
{"molecule": "Cc1ccc(-c2nc3ccccc3[nH]2)cc1NC(=O)c1sc2ccccc2c1Cl", "measurement": 99.3}
{"molecule": "O=C(NC1Cc2ccccc2C1)c1cc(COc2cccc(C(F)(F)F)c2)on1", "measurement": 26.2}
{"molecule": "O=c1oc2ccccc2c(CNc2ccccc2)c1[N+](=O)[O-]", "measurement": 7.52}
{"molecule": "CSc1nc2c(c(=O)[nH]1)C(c1cccc(Cl)c1Cl)CC(=O)N2 (centres undefined)", "measurement": -2.71}
{"molecule": "COc1cccc2sc(N(CCCN(C)C)C(=O)C(c3ccccc3)c3ccccc3)nc12", "measurement": 92.5}
{"molecule": "COc1ccc(Br)cc1C(=O)NC(=S)Nc1cc(-c2nc3ccccc3[nH]2)ccc1C", "measurement": 81.4}
